biological target: HLA-A*26:01; assay: IEDB peptide-MHC binding, purified MHC/competitive/radioactivity; filed as Kd, often an IC50 or EC50 that approximates it; bounds were set here for any values at or beyond the usual limits of such assays; settings: source organism: SARS coronavirus Tor2
reportedProperty: pKd
Quick note: pKd values are minus log10 of concentrations in mol/L.

A selection of reference data follows.
Inquiry: Give the value of pKd reported for the following: DTSNPKTPKY
Reply text: 5.90

Inquiry: // Input: ITLVYKVYY . Output its pKd only.
Reply text: 5.79

---
Inquiry: Supply reported pKd belonging to this sequence: YSNRNRFLY
Reply text: 5.83

====

biological target: HLA-B*45:01; assay: IEDB peptide-MHC binding, purified MHC/competitive/radioactivity; filed as Kd, often an IC50 or EC50 that approximates it; bounds were set here for any values at or beyond the usual limits of such assays; conditions: source organism: SARS coronavirus Tor2
reportedProperty: pKd
Value format note: pKd is -log10 of concentration (mol/L); just state the number.

Solved entries:
Inquiry: Query pKd for REFVFKNKDG
Reply text: 5.27

Inquiry: # return recorded pKd for entry QEYADVFHLY
Reply text: 6.22

Inquiry: Specify measured pKd for SEVGICLST .
Reply text: 8.07

Inquiry: Check the records and state pKd for SETLLPLTQY
Reply text: 5.76

# context switch: different sequence, same pKd
Inquiry: Supply recorded pKd for FEEAALCTFL here.
Reply text: 6.79

====

Here, each record is paired with measured pKd data.
target: HLA-B*35:01; test: IEDB peptide-MHC binding, purified MHC/competitive/radioactivity; filed as Kd, often an IC50 or EC50 that approximates it; bounds were set here for any values at or beyond the usual limits of such assays; conditions: source organism: Vaccinia virus WR
pKd: −log10 of the molar value.

Before answering, review these 2 worked examples.
Inquiry: Identify the reported pKd for the following entry. AFVRFSTDK
Reply text: ≤ 4.47

Inquiry: Specify pKd for IPSLFIESSI and stop.
Reply text: ≤ 4.16

// next entry
Inquiry: State, in one line, measured pKd of CPASKKESVI
Reply text: ≤ 4.16

====

Overview of recorded pKd for various sequences
biological target: HLA-A*03:01; assay: IEDB peptide-MHC binding, purified MHC/competitive/radioactivity; filed as Kd, often an IC50 or EC50 that approximates it; bounds were set here for any values at or beyond the usual limits of such assays; details: source organism: SARS coronavirus Tor2
Note: pKd values are expressed as the negative base-10 logarithm of concentration in M.

Some sequences with known pKd results, for comparison:
Inquiry: GET pKd | system: HLA-A*03:01 | item: SVVNARLRAK
Reply text: 7.18

Inquiry: Print HLA-A*03:01 pKd for TVVQRCASNK .
Reply text: 6.85

// moving on: another record for pKd
Inquiry: Report the value of pKd obtained on HLA-A*03:01 for AISDYDYYR .
Reply text: 7.06

====

molecular target: HLA-A*11:01; assay: IEDB peptide-MHC binding, purified MHC/competitive/radioactivity; filed as Kd, often an IC50 or EC50 that approximates it; bounds were set here for any values at or beyond the usual limits of such assays; details: source organism: Vaccinia virus WR
reportedProperty: Kd

Worked examples follow.
Inquiry: For the sequence YMVTDKTAY , report Kd.
Reply text: ≥ 26.2 µM

Inquiry: Give reported Kd value for PMPYMISTY
Reply text: ≥ 42.1 µM

***
Inquiry: Specify Kd for VVVKDDPDHY and stop.
Reply text: ≥ 21.6 µM

Inquiry: Fill in reported Kd for this entry: FMRDWNSKY
Reply text: ≥ 77.9 µM

Inquiry: Return Kd (reported value) for this sequence: FITKEIKNR
Reply text: ≥ 77.9 µM

Inquiry: Fill in Kd for record KFLELKRGIY
Reply text: ≥ 69.8 µM

Inquiry: Specify measured Kd for LFDFVNEKY .
Reply text: ≥ 48.7 µM

Inquiry: For YIPGTSVIR , write its Kd.
Reply text: ≥ 77.9 µM

Inquiry: Quick one: give measured Kd for PLHKYCVNLY
Reply text: ≥ 25.6 µM

Inquiry: Look up and state reported Kd for PSLEYGANY
Reply text: ≥ 21.7 µM

Inquiry: Retrieve Kd measured for ELALTDVEKR and print it.
Reply text: ≥ 69.8 µM
